These entries and their values trace back to the RNAGym collection of RNA variant scans (doi:10.7554/elife.90254).

B1: LINE1-mini (parent)
chain: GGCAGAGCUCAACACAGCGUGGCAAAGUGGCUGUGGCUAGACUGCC

Variants of: B1
Experiment: self-cleavage, relative activity (ratio to wild type); higher = more cleavage; in vitro, sequencing; the parent is a self-cleaving ribozyme
measured-metric: self-cleavage
One number for each entry.

Some solved cases for reference:
Using the record for G5U U38G , report its self-cleavage.
0.03

What does the record list as self-cleavage for C31G G35A ?
0.04

Entry under review: C10G G19U . Reported self-cleavage?
0.11

Which self-cleavage is reported for this variant? G2C C18G
0.05

Query (variant): G1C G27A ; field requested: self-cleavage
0.16

Lab note: each variant below needs its self-cleavage filled in.
1. G5U
2. C23A A41C
3. A16C A25C
4. G17A A25G
5. A6C C42A

[0.14, 0.05, 0.04, 0.07, 0.11]
